Target: α1 adrenoceptor
Test: displacement of ^3 H-prazosin specifically bound in rat brain homogenate (radioligand binding)
Details: ^3 H Prazosin binding, Ki calculated from IC50, read-out: K1 (nM) ^3 H Prazosin
Procedure: The compounds of the invention were tested […] for their ability to compete with labelled ligands of α1, α2 -adrenergic,and dopaminergic receptors. Said tests were made essentially following: (b) the method described by P. Greengrass et al., European Journal of Pharmacology, Vol. 55, pp. 323-326, (1979), which uses the specific displacement of ^3 H-prazosin specifically bound in rat brain homogenate, for the identification of substances interacting with the so called "α1 "adrenoceptor; […]
Counter-ions that a name gives are not always drawn.
# note: boundary value 30 nM maps to not met; Ki below it maps to met

{"columns": ["compound", "class name"],
 "data": [
  ["Cc1ccc(Cn2nc(-c3ccc(F)cc3)c3c2CCN(C)C3)cc1 [Example 135]", "not met"],
  ["CN1CCc2c(c(-c3ccccc3)nn2Cc2ccccc2)C1 [Example 145]", "not met"],
  ["CCCCCCn1nc(-c2ccc(F)cc2)c2c1CCN(C)C2 [Example 151]", "met"],
  ["CC(c1ccccc1)n1nc(-c2ccc(F)cc2)c2c1CCNC2 (stereo not drawn) [Example 116]", "met"],
  ["Cc1ccc(Cn2nc(-c3ccc(F)cc3)c3c2CCNC3)cc1 [Example 107]", "met"],
  ["CN1CCc2c(c(-c3ccc(F)cc3)nn2CCCc2ccccc2)C1 [Example 139, hydrochloride]", "met"],
  ["CC(C)n1nc(-c2ccc(F)cc2)c2c1CCNC2 [Example 95]", "not met"],
  ["CN1CCc2c(c(-c3ccc(F)cc3)nn2Cc2ccccc2)C1 [Example 128]", "met"],
  ["CCCCCCn1nc(-c2ccc(F)cc2)c2c1CCNC2 [Example 123]", "met"]
]}
